src = patent US10689414B2

# Tested on: U87MG cells
# EXPERIMENT: Cellular assay, inhibition of 2-HG production in U87MG cells
# Type: cell-based
# MEASUREMENT CONTEXT: Homo sapiens, U-87 MG, 48 h
pIC50: −log10 of the molar value.
READOUT: pIC50

Returns the measured pIC50 for the input compound. Input: N#Cc1ccnc(N2C(=O)OCC[C@H]2C(=O)N(c2cc(F)cc(F)c2)[C@H](C(=O)NC2CC(F)(F)C2)c2ccccc2Cl)n1 [Compound 154]
> 7.00

And N#Cc1cnc(N2C(=O)CC[C@H]2C(=O)N(c2cc(F)cc(F)c2)[C@H](C(=O)NC2CC(F)(F)C2)c2ccccc2Cl)o1 [Compound 162] ?
> 7.00

And N#Cc1ccnc(N2C(=O)CC[C@H]2C(=O)N(c2cccc(OC(F)F)c2)[C@H](C(=O)NC2CC(F)(F)C2)c2ccccc2Cl)n1 [Compound 194] ?
> 7.00

And N#Cc1ccnc(N2C(=O)CC[C@H]2C(=O)N(c2cccc(F)c2)[C@H](C(=O)NC2CCC(F)(F)CC2)c2ccccc2Cl)c1F [Compound 83] ?
> 7.00

And N#Cc1ccnc(N2C(=O)CC[C@H]2C(=O)N(c2cc(F)cc(F)c2)[C@H](C(=O)NC2CCC(F)(F)CC2)c2ccccc2Cl)c1 [Compound 81] ?
> 7.00

And N#Cc1cc(F)cc(N(C(=O)[C@@H]2CCC(=O)N2c2cc(C#N)ccn2)[C@H](C(=O)NC2CC(F)(F)C2)c2ccccc2F)c1 [Compound 207] ?
> 7.00

And N#Cc1cccc(N(C(=O)[C@@H]2CCC(=O)N2c2nccc(C#N)n2)[C@H](C(=O)NC2CCC(F)(F)CC2)c2ccccc2Cl)c1 [Compound 178] ?
> 7.00

And N#Cc1ccnc(N2C(=O)[C@H](O)C[C@H]2C(=O)N(c2cc(F)cc(F)c2)[C@@H](C(=O)NC2CC(F)(F)C2)c2ccccc2Cl)n1 [Compound 116] ?
6.30 to 7.00

And O=C(NC1CC(F)(F)C1)[C@H](c1ccccc1Cl)N(C(=O)[C@@H]1CCC(=O)N1c1cc(C(F)(F)F)ccn1)c1cccc(F)c1 [Compound 40] ?
6.30 to 7.00

And N#Cc1ccc(N2C(=O)CC[C@H]2C(=O)N(c2cccc(F)c2)[C@H](C(=O)NC2CC(F)(F)C2)c2ccccc2Cl)nc1 [Compound 47] ?
6.30 to 7.00

And N#Cc1ccnc(N2C(=O)CC[C@H]2C(=O)N(c2cccc(F)c2)[C@H](C(=O)NC2CC(F)(F)C2)c2ccccc2)c1 [Compound 138] ?
> 7.00

And O=C(NC1CC(F)(F)C1)[C@H](c1ccccc1Cl)N(C(=O)[C@@H]1CCC(=O)N1c1cc(Cl)ccn1)c1cccc(F)c1 [Compound 33] ?
6.30 to 7.00

And N#Cc1ccnc(N2C(=O)CC[C@H]2C(=O)N(c2cc(F)cc(F)c2)[C@H](C(=O)NC2CCC(F)(F)CC2)c2ccccc2Cl)n1 [Compound 87] ?
> 7.00

And N#Cc1cccnc1N1C(=O)CC[C@H]1C(=O)N(c1cccc(F)c1)[C@H](C(=O)NC1CC(F)(F)C1)c1ccccc1Cl [Compound 69] ?
> 7.00

And N#Cc1ccnc(N2C(=O)[C@H](O)C[C@H]2C(=O)N(c2cccc(F)c2)[C@H](C(=O)NC2CC(F)(F)C2)c2ccccc2Cl)n1 [Compound 120] ?
6.30 to 7.00
